Some variants, each annotated with its measured polymerase ribozyme fitness (log ratio).
B1: TPR t1 (parent)
chain: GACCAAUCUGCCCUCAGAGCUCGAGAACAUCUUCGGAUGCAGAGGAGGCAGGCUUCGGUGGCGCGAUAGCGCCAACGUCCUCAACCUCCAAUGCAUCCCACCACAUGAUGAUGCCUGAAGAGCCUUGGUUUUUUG

- Variants of: B1
- ASSAY REMARKS: polymerase ribozyme fitness, log enrichment relative to wild type (log ratio); higher = more active; in vitro selection for triplet polymerase activity
Lab note: record just the number, no unit beside it.

G61U C102U; -1.65
U54A C85U C97U; -1.5
A50U U125G G127C; -3.43

## Input Return reported polymerase ribozyme fitness (log ratio); argument: G25A C124G
## Output -5.14

Source of measurements: the RNAGym collection of RNA variant scans (doi:10.1073/pnas.2313332121)
